Source: ChEMBL document CHEMBL1142867

Reported MCC values for the following compounds.
- ASSAY NAME: Cytotoxicity against E6SM cells assessed as alteration in cell morphology
- Type: cell-based
- SETTINGS: human

Here are 5 compounds together with their reported answers.
COMPOUND STRUCTURE STRING: Nc1ncn(C[C@@H](CO)OCP(=O)(O)O)c(=O)n1
MCC: > 400 µg/mL
//
COMPOUND STRUCTURE STRING: NC(=O)c1ncn([C@@H]2O[C@H](CO)[C@@H](O)[C@H]2O)n1
MCC: > 400 µg/mL
//
COMPOUND STRUCTURE STRING: O=c1[nH]c(=O)n([C@H]2C[C@H](O)[C@@H](CO)O2)cc1/C=C/Br
MCC: > 400 µg/mL
//
COMPOUND STRUCTURE STRING: Nc1ncn(C[C@H](CO)OCP(=O)(O)O)c(=O)n1
MCC: > 200 µg/mL
//
COMPOUND STRUCTURE STRING: Nc1ncn(CCOCP(=O)(O)O)c(=O)n1
MCC: 400 µg/mL

Now for a further compound.
Query :: Dear colleague, I am looking for the recorded MCC of the following compound: NC(N)=NC(=O)NC[C@@H](CO)OCP(=O)(O)O
Result :: > 100 µg/mL

----------
- ASSAY NAME: Cytotoxicity against E6SM cells assessed as alteration in cell morphology
- Type: cell-based
- SETTINGS: human
Reported MCC values for the following molecules.

Here are 2 molecules together with their reported answers.
MOLECULE: Nc1ncn(C[C@H](O)CO)c(=O)n1
REPORTED METRIC: MCC
REPORTED MEASUREMENT: > 100 µg/mL

MOLECULE: NC(=NC(=O)NC[C@@H](CO)OCP(=O)(O)O)NC=O
REPORTED METRIC: MCC
REPORTED MEASUREMENT: > 100 µg/mL

Query :: Dear colleague, I am looking for the recorded MCC of the following molecule: Nc1cnn(C[C@@H](CO)OCP(=O)(O)O)c(=O)n1
Result :: > 400 µg/mL

Query :: Dear colleague, I am looking for the recorded MCC of the following molecule: C[C@H](Cn1cnc(N)nc1=O)OCP(=O)(O)O
Result :: > 100 µg/mL

Query :: Dear colleague, I am looking for the recorded MCC of the following molecule: Nc1ncnc2c1ncn2C[C@H](O)CO [(S)-DHPA]
Result :: > 400 µg/mL

----------
- System: Vesicular stomatitis virus
- ASSAY NAME: microbe, parasite or virus in culture
- SETTINGS: HeLa
REPORTED METRIC: EC50

COMPOUND: Nc1ncn(C[C@H](CO)OCP(=O)(O)O)c(=O)n1
SUBJECT OF TEST: Vesicular stomatitis virus
EC50: > 200 µg/mL

COMPOUND: O=c1[nH]c(=O)n([C@H]2C[C@H](O)[C@@H](CO)O2)cc1/C=C/Br [BRIVUDINE]
SUBJECT OF TEST: Vesicular stomatitis virus
EC50: > 400 µg/mL

Query :: Write down the reported EC50 of NC(N)=NC(=O)NC[C@@H](CO)OCP(=O)(O)O , test system: Vesicular stomatitis virus.
Result :: > 100 µg/mL

Query :: Write down the reported EC50 of Nc1cnn(C[C@@H](CO)OCP(=O)(O)O)c(=O)n1 , test system: Vesicular stomatitis virus.
Result :: > 400 µg/mL

Query :: Write down the reported EC50 of NC(=NC(=O)NC[C@@H](CO)OCP(=O)(O)O)NC=O , test system: Vesicular stomatitis virus.
Result :: > 100 µg/mL

----------
Reported EC50 values for the following molecules.
- Tested on: Vaccinia virus
- Assay type: functional, organism-based
- SETTINGS: Orthopoxvirus vaccinia, Lederle, HEL

Here are 8 molecules together with their reported answers.
COMPOUND STRUCTURE STRING: Nc1cnn(C[C@@H](CO)OCP(=O)(O)O)c(=O)n1
EC50: 63.1 µg/mL

COMPOUND STRUCTURE STRING: Nc1ncn(CCOCP(=O)(O)O)c(=O)n1
EC50: > 100 µg/mL

COMPOUND STRUCTURE STRING: Nc1ncn(C[C@H](CO)OCP(=O)(O)O)c(=O)n1
EC50: ≥ 81.6 µg/mL

COMPOUND STRUCTURE STRING: C[C@H](Cn1cnc(N)nc1=O)OCP(=O)(O)O
EC50: > 100 µg/mL

COMPOUND STRUCTURE STRING: NC(=NC(=O)NC[C@@H](CO)OCP(=O)(O)O)NC=O
EC50: 8.35 µg/mL

COMPOUND STRUCTURE STRING: Nc1ccn(C[C@@H](CO)OCP(=O)(O)O)c(=O)n1.O.O
EC50: 2.6 µg/mL

COMPOUND STRUCTURE STRING: Nc1ncn(C[C@H](O)CO)c(=O)n1
EC50: > 100 µg/mL

COMPOUND STRUCTURE STRING: Nc1ncn(C[C@@H](CO)OCP(=O)(O)O)c(=O)n1
EC50: 2.56 µg/mL

Now for a further molecule.
Query :: Dear colleague, I am looking for the recorded EC50 of the following molecule: NC(N)=NC(=O)NC[C@@H](CO)OCP(=O)(O)O
Result :: > 100 µg/mL

----------
- ASSAY NAME: Cytotoxicity against HEL cells assessed as alteration in cell morphology after 3 days
- Assay type: cell-based
- SETTINGS: human, read-out: Activity
Reported MCC at 72 h values for the following compounds.

COMPOUND: NC(=NC(=O)NC[C@@H](CO)OCP(=O)(O)O)NC=O
REPORTED MEASUREMENT: > 50 µg/mL
//
COMPOUND: Nc1ccn(C[C@@H](CO)OCP(=O)(O)O)c(=O)n1.O.O [CIDOFOVIR]
REPORTED MEASUREMENT: > 100 µg/mL
//
COMPOUND: Nc1ncn(C[C@@H](CO)OCP(=O)(O)O)c(=O)n1
REPORTED MEASUREMENT: > 50 µg/mL
//
COMPOUND: C[C@H](Cn1cnc(N)nc1=O)OCP(=O)(O)O
REPORTED MEASUREMENT: > 50 µg/mL
//
COMPOUND: Nc1ncn(CCOCP(=O)(O)O)c(=O)n1
REPORTED MEASUREMENT: > 100 µg/mL
//
COMPOUND: NC(N)=NC(=O)NC[C@@H](CO)OCP(=O)(O)O
REPORTED MEASUREMENT: > 50 µg/mL
//
COMPOUND: Nc1ncn(C[C@H](CO)OCP(=O)(O)O)c(=O)n1
REPORTED MEASUREMENT: > 100 µg/mL
//
COMPOUND: Nc1cnn(C[C@@H](CO)OCP(=O)(O)O)c(=O)n1
REPORTED MEASUREMENT: > 100 µg/mL
//
COMPOUND: O=c1[nH]c(=O)n([C@H]2C[C@H](O)[C@@H](CO)O2)cc1/C=C/Br [BRIVUDINE]
REPORTED MEASUREMENT: > 100 µg/mL
//
COMPOUND: Nc1ncn(C[C@H](O)CO)c(=O)n1
REPORTED MEASUREMENT: > 100 µg/mL

Query :: Dear colleague, I am looking for the recorded MCC at 72 h of the following compound: Nc1nc(O)c2ncn(COC(CO)CO)c2n1 [GANCICLOVIR]
Result :: > 100 µg/mL

Query :: Dear colleague, I am looking for the recorded MCC at 72 h of the following compound: Nc1nc2c(ncn2COCCO)c(=O)[nH]1 [ACYCLOVIR]
Result :: > 100 µg/mL

----------
- ASSAY NAME: Cytotoxicity against Vero cells assessed as alteration in cell morphology
- Type: cell-based
- SETTINGS: chlorocebus sabaeus
Reported MCC values for the following molecules.

MOLECULE: Nc1ncn(C[C@H](CO)OCP(=O)(O)O)c(=O)n1
MCC: > 200 µg/mL

Now for a further molecule.
Query :: Dear colleague, I am looking for the recorded MCC of the following molecule: Nc1ncnc2c1ncn2C[C@H](O)CO [(S)-DHPA]
Result :: > 400 µg/mL

----------
- Test system: Coxsackievirus B4
- Format: functional, organism-based
- SETTINGS: Enterovirus B, Vero
Reported EC50 values for the following molecules.

Query :: Dear colleague, I am looking for the recorded EC50 of the following molecule: Nc1cnn(C[C@@H](CO)OCP(=O)(O)O)c(=O)n1
Result :: > 80 µg/mL

----------
Reported EC50 values for the following molecules.
- System: Human respirovirus 3
- Type: functional, organism-based
- SETTINGS: Human respirovirus 3, Vero

Here are 3 molecules together with their reported answers.
MOLECULE: NC(=NC(=O)NC[C@@H](CO)OCP(=O)(O)O)NC=O
EC50: > 100 µg/mL

MOLECULE: Nc1ncn(C[C@@H](CO)OCP(=O)(O)O)c(=O)n1
EC50: > 80 µg/mL

MOLECULE: Nc1cnn(C[C@@H](CO)OCP(=O)(O)O)c(=O)n1
EC50: > 80 µg/mL

Query :: Dear colleague, I am looking for the recorded EC50 of the following molecule: Nc1ncn(CCOCP(=O)(O)O)c(=O)n1
Result :: > 80 µg/mL

Query :: Dear colleague, I am looking for the recorded EC50 of the following molecule: NC(N)=NC(=O)NC[C@@H](CO)OCP(=O)(O)O
Result :: > 100 µg/mL

Query :: Dear colleague, I am looking for the recorded EC50 of the following molecule: Nc1ncn(C[C@H](O)CO)c(=O)n1
Result :: > 100 µg/mL

Query :: Dear colleague, I am looking for the recorded EC50 of the following molecule: Nc1ncn(C[C@H](CO)OCP(=O)(O)O)c(=O)n1
Result :: > 200 µg/mL

Query :: Dear colleague, I am looking for the recorded EC50 of the following molecule: O=c1[nH]c(=O)n([C@H]2C[C@H](O)[C@@H](CO)O2)cc1/C=C/Br
Result :: > 400 µg/mL

Query :: Dear colleague, I am looking for the recorded EC50 of the following molecule: Nc1ncnc2c1ncn2C[C@H](O)CO [(S)-DHPA]
Result :: 48 µg/mL

Query :: Dear colleague, I am looking for the recorded EC50 of the following molecule: C[C@H](Cn1cnc(N)nc1=O)OCP(=O)(O)O
Result :: > 100 µg/mL

Query :: Dear colleague, I am looking for the recorded EC50 of the following molecule: NC(=O)c1ncn([C@@H]2O[C@H](CO)[C@@H](O)[C@H]2O)n1
Result :: 48 µg/mL
